Just for reference, ChEMBL document CHEMBL1131314 is where these values come from.

For reference, IC50 measured on Prostaglandin G/H synthase 2 (Homo sapiens, UniProt P35354):
The figure you give is taken to be in nM; do not add the unit.

Here's what some known entries look like.
C#CCCCC(=O)c1cc(C(C)(C)C)c(O)c(C(C)(C)C)c1 [TEBUFELONE] | 100
CC(C)(C)c1cc(C(=O)CS(=O)(=O)CC2CC2)cc2c1OCC2(C)C | 2000

// next item, IC50 requested
In: Kindly state the measured IC50 obtained for CC(C)(Cl)CC(=O)c1cc(C(C)(C)C)c2c(c1)C(C)(C)CO2 with Prostaglandin G/H synthase 2 (Homo sapiens, UniProt P35354).
Sequence (P35354 whole entry): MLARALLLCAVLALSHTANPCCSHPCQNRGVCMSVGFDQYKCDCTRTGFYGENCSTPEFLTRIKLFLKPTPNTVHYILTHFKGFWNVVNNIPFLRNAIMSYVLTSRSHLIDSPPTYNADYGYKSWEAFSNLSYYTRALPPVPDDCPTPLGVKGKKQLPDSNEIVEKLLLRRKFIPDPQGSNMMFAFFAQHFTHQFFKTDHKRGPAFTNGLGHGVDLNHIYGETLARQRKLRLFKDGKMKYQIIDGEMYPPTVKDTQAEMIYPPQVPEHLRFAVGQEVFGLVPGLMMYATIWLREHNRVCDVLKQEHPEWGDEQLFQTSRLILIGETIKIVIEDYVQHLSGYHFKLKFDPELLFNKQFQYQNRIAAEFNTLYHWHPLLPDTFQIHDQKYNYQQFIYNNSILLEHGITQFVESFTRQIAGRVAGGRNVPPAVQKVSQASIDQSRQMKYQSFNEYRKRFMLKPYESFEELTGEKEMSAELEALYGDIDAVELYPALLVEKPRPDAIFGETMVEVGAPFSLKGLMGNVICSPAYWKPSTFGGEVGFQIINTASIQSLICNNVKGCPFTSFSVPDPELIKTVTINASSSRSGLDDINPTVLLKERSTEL
Out: 100

* * *

Consider the following compounds and their measured CPE index readings.
# Tested on: Rattus norvegicus
# assay.text: Carrageenan paw edema index (CPE index) as ratio of the reduction in paw volume relative to tebufelone at a po (peroral) dose of 50 mg/kg.
# Type: functional
Output spec: single numeric token, no unit.

CC(C)=CC(=O)c1cc(C(C)(C)C)c2c(c1)C(C)(C)CO2 | 1.22
CC(C)(C)c1cccc2c1OCC2(C)C | 0.31
CCC(=O)c1cc(C(C)(C)C)c2c(c1)C(C)(C)CO2 | 1.14
CN(CC(=O)c1cc(C(C)(C)C)c2c(c1)C(C)(C)CO2)CC1CC1 | 0.38

// next item, CPE index requested
In: Need CPE index of CC(C)(C)c1cc(C(=O)C2CCCC2)cc2c1OCC2(C)C , thanks.
Out: 0.65
